Molecular target: T1, Epstein-Barr virus BHRF1 a.a. 1-161 with C-terminal avi-6his tag (Epstein-Barr virus)
T1 construct: also called EBV BHRF1; BHRF1-biotin
T1 chain: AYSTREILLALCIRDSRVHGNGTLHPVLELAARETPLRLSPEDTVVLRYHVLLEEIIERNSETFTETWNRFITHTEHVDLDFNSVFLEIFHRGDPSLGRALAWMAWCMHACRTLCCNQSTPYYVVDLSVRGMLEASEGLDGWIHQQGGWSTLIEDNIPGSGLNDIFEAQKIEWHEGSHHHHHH
Experiment: yeast display library, FACS sort at 400 nM BHRF1, deep sequencing
assay-readout: Log2 enrichment ratio (log2)
Report the figure in log2 without appending any unit label.

Index 45 (designed binder) GYSLDDFLKLAKLLAELLKRFIRKEAERLRELKEWLLDTTLGRLILTLEWIAIELMIIGDIFNAKMLLDKFAKYAEWLGLMKEEEAKQAKKLAKLLLDEVKDEARKKADDGEKFAEEG	-3.17

get_value(item= Index 74 (designed binder) GTDHQAFDEWARRELERIVEEARERAERLREWIEQKDASREELTKFFAIWIAISLMAIGDLFNVKEQAKRLAELLEFLGLQRKEEIEKSKKNAEKLADEAMKKASKLDAKVEKELMQG , readout=Log2 enrichment ratio) returns -2.62
